Study System: T1, TNFR1 (Homo sapiens, UniProt P19438)
T1 chain: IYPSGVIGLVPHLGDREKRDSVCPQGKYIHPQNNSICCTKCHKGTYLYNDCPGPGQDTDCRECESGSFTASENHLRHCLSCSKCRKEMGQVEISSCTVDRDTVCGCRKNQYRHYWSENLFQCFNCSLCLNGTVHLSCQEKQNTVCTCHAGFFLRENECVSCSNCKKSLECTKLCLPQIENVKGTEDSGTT
Experimental Protocol: yeast display SC50
Reported apparent Kd (screen) by item:
Report the figure in nM without appending any unit label.

Worked cases, apparent Kd (screen) given:
Respond only with apparent Kd (screen) recorded for L26Y (designed binder) MTLQELLREEALRRAEAEAFRYALEYLAEKFPEQKEYLLDLAEEIESQIRSLSGVDVEDVRKFLDKEWAWVKELLAEHPAELAEVEAARAARLAELRAEVEAKVAA
0.593

Respond only with apparent Kd (screen) recorded for E99D (designed binder) MTLQELLREEALRRAEAEAFRYALELLAEKFPEQKEYLLDLAEEIESQIRSLSGVDVEDVRKFLDKEWAWVKELLAEHPAELAEVEAARAARLAELRADVEAKVAA
0.539

Now consider a different binder.
Respond only with apparent Kd (screen) recorded for V60L (designed binder) MTLQELLREEALRRAEAEAFRYALELLAEKFPEQKEYLLDLAEEIESQIRSLSGVDVEDLRKFLDKEWAWVKELLAEHPAELAEVEAARAARLAELRAEVEAKVAA
0.593
